# targetOrSystem: GATA4–NKX2-5 transcriptional synergy (Mus musculus, UniProt P42582+Q08369)
# Construct: expressed in transfected cells; host or cells: COS-1
# Sequence (Q08369 whole entry): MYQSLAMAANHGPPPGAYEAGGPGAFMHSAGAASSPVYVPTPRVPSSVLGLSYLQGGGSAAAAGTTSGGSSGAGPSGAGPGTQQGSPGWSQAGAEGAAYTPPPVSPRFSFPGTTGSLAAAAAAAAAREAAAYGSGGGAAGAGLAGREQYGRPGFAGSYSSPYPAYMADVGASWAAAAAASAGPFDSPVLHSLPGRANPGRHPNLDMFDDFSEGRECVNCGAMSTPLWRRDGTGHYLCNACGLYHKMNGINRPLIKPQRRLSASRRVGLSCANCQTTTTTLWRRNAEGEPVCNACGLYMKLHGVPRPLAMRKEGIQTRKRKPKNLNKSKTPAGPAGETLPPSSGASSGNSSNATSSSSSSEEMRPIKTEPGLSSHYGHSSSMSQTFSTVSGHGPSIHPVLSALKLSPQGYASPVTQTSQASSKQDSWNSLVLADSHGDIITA
# Sequence (P42582 whole entry): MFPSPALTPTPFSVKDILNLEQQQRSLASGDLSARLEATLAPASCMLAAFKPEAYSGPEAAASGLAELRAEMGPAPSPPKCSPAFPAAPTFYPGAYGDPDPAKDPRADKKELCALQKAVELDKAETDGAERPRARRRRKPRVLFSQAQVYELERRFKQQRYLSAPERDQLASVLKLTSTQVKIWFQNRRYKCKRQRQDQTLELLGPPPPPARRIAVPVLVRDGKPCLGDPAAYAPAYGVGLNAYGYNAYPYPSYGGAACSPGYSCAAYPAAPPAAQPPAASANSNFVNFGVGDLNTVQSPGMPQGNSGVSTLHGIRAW
# measurementNotes: GATA4–NKX2-5 transcriptional synergy luciferase reporter assay (3xNKE reporter, COS-1 cells)
# Assay type: cell-based
# details: COS-1; 3 µM; luciferase reporter activity relative to control
propertyLabel: activity at 3 µM (%)

>  <compound>
CCN(CC)c1ccc(NC(=O)c2c(-c3cccc([N+](=O)[O-])c3)noc2C)cc1 [Compound 39g]

>  <activity at 3 µM (%)>
93.4

$$$$
>  <compound>
Cc1onc(-c2ccccc2)c1C(=O)Nc1ccc2oc(-c3ccccc3)cc(=O)c2c1 [Compound 4g]

>  <activity at 3 µM (%)>
62.6

$$$$
>  <compound>
CCN(CC)c1ccc(CN(C(=O)C(F)(F)F)c2c(-c3ccccc3)noc2C)cc1 [Compound 30c]

>  <activity at 3 µM (%)>
100

$$$$
>  <compound>
Cc1onc(-c2ccccc2)c1C(=O)Nc1ccc(C#C[Si](C)(C)C)cc1 [Compound 4j]

>  <activity at 3 µM (%)>
67.8

$$$$
>  <compound>
CCN(CC)c1ccc(NC(=O)c2c(C)noc2-c2cc(C)on2)cc1 [Compound 3]

>  <activity at 3 µM (%)>
75.5

$$$$
>  <compound>
CCN(CC)c1ccc(NC(=O)c2cnc(SC)n2-c2ccc(F)cc2)cc1 [Compound 47z]

>  <activity at 3 µM (%)>
67.6

$$$$
>  <compound>
C=CCN(Cc1ccc(N(CC)CC)cc1)c1c(-c2ccccc2)noc1C [Compound 30b]

>  <activity at 3 µM (%)>
84.5

$$$$
>  <compound>
CCN(CC)c1ccc(NC(=O)c2c(-c3ccccc3)nnn2CCc2ccccc2)cc1 [Compound 71]

>  <activity at 3 µM (%)>
75.2

$$$$
